Emax values by entry
- Measured target: human AMPK (full-length γ1, β1 and α1 subunits) (Homo sapiens (Human), UniProt Q13131+Q9Y478)
- Sequence (Q13131 whole entry): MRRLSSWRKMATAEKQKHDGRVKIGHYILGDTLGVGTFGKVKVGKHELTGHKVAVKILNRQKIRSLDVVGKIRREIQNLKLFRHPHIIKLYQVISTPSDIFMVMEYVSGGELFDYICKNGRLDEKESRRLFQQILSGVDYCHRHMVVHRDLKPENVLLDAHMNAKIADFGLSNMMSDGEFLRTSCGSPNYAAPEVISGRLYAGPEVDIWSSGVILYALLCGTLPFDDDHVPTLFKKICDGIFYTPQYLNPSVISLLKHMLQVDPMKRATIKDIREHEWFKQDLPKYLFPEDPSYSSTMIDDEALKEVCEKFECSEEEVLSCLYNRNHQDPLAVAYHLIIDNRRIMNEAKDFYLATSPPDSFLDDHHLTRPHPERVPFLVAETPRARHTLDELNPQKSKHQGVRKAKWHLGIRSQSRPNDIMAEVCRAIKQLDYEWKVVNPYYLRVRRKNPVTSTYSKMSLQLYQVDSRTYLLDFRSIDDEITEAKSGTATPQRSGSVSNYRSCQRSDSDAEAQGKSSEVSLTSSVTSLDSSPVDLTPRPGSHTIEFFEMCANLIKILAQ
- Sequence (Q9Y478 whole entry): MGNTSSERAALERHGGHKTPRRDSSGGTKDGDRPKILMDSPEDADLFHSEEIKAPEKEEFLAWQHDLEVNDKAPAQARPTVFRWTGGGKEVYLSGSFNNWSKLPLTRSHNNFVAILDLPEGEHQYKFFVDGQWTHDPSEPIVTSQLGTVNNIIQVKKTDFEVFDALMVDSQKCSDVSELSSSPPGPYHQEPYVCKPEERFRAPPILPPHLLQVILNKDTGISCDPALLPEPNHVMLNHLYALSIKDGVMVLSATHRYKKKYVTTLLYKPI
- Sequence (P54619 whole entry partner): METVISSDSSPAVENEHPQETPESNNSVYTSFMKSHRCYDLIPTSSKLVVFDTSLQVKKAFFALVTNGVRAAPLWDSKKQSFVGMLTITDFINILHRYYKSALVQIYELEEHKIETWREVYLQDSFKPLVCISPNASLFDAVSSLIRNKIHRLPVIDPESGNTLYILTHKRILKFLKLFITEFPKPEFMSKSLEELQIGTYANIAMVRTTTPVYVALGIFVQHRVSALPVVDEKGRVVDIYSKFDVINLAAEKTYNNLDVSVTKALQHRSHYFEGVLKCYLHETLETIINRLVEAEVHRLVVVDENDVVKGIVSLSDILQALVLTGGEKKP
- Assay comment: AMPK in vitro biochemical assay (33P-based, SAMS peptide, PP2A dephosphorylation)
- Applied conditions: counts as % of positive control wells (enzyme, allosteric activator or AMP, PP2A and substrate); read-out: Maximum
Result type: Emax (%)

Compound	Numeric result
O=C(O)c1n[nH]c2cc(Cl)c(-c3ccc(N4CCOCC4)cc3)cc12 [Example 128]	70
NC(=O)COc1ccc(-c2cc3c(C(=O)O)c[nH]c3cc2Cl)cc1 [Example 70]	106
COc1nc(N2CC[C@H](O)C2)ccc1-c1cc2c(C(=O)O)c[nH]c2cc1Cl [Example 184]	84
O=C(O)c1c[nH]c2cc(F)c(-c3ccc(OCCC4CCOC4)cc3)c(F)c12 (stereo not shown) [Example 190]	108

###

- Measured target: human AMPK (full-length γ1, β1 and α1 subunits) (Homo sapiens (Human), UniProt Q13131+Q9Y478)
- Assay comment: AMPK in vitro biochemical assay (33P-based, SAMS peptide, PP2A dephosphorylation)
- Applied conditions: counts as % of positive control wells (enzyme, allosteric activator or AMP, PP2A and substrate); read-out: Maximum

Compound	Unit label	Emax
COc1ccc(-c2cc3c(C(=O)O)n[nH]c3cc2Cl)cc1	%	94
COc1cc(-c2cc3c(C(=O)NS(C)(=O)=O)c[nH]c3cc2Cl)ccc1C(C)(C)CO	%	111
COc1cc(-c2cc3c(C(=O)O)c[nH]c3cc2Cl)ccc1[C@H]1C[C@H](O)C1	%	119
CC(O)(c1ccc(-c2cc3c(C(=O)O)n[nH]c3cc2Cl)cc1)C(F)(F)F (stereo not drawn)	%	92
N#Cc1cc2[nH]cc(C(=O)O)c2cc1-c1ccc(C2(CO)CC2)cc1	%	88
CC(C)(O)c1ccc(-c2cc3c(C(=O)O)n[nH]c3cc2Cl)cc1	%	79
O=C(O)c1c[nH]c2cc(Cl)c(-c3ccc(C4(O)CCC4)c(F)c3)cc12	%	65
O=C(O)c1c[nH]c2cc(Cl)c(-c3ccc(CCCO)cc3)cc12	%	108
COc1nc(N2CCC(O)C2)ccc1-c1cc2c(C(=O)O)c[nH]c2cc1Cl (stereo not drawn)	%	92.9
NC(=O)Cc1ccc(-c2cc3c(C(=O)O)n[nH]c3cc2Cl)cc1	%	57
O=C(O)c1c[nH]c2cc(Cl)c(-c3ccc(OCCCN4CCNCC4)cc3)cc12	%	91
N#Cc1cc(C2(O)CCC2)ccc1-c1cc2c(C(=O)O)c[nH]c2cc1Cl	%	74
Cc1cc(C2(O)CCC2)ccc1-c1cc2c(C(=O)O)c[nH]c2cc1Cl	%	78
COC(C)c1ccc(-c2cc3c(C(=O)O)n[nH]c3cc2Cl)cc1 (stereo not drawn)	%	90
COc1ccc(-c2cc3c(S(=O)(=O)O)c[nH]c3cc2Cl)cc1	%	46
CC(CO)Oc1ccc(-c2cc3c(C(=O)O)c[nH]c3cc2Cl)cc1 (stereo not drawn)	%	87.3
COC[C@@H](C)Oc1ccc(-c2cc3c(C(=O)O)c[nH]c3cc2Cl)cc1	%	146
O=C(O)c1c[nH]c2cc(F)c(-c3ccc(CO)cc3)cc12	%	78

###

The following compounds are shown together with reported Emax values.
- Measured target: human AMPK (full-length γ1, β1 and α1 subunits) (Homo sapiens (Human), UniProt Q13131+Q9Y478)
- Assay comment: AMPK in vitro biochemical assay (33P-based, SAMS peptide, PP2A dephosphorylation)
- Applied conditions: counts as % of positive control wells (enzyme, allosteric activator or AMP, PP2A and substrate); read-out: Maximum

Compound	Emax (%)
COc1ccc(-c2cc3c(C(=O)O)n[nH]c3cc2C)c(F)c1	83
CN(C)c1ncc(-c2cc3c(C(=O)O)c[nH]c3cc2Cl)cn1	118
COc1cc(-c2cc3c(C(=O)O)c[nH]c3cc2Cl)ccc1OCCCO	75
O=C(O)c1c[nH]c2cc(Cl)c(-c3ccc(C4(C(=O)O)CCC4)cc3)cc12	68
O=C(O)c1c[nH]c2cc(Cl)c(-c3ccc(O[C@@H]4CCC[C@H]4O)cc3)cc12 (racemic)	93
O=C(O)c1c[nH]c2cc(Cl)c(-c3ccc(C4(O)COC4)cc3)cc12	78
CC(=O)NCCOc1ccc(-c2cc3c(C(=O)O)c[nH]c3cc2Cl)cc1	91
O=C(O)c1c[nH]c2cc(Cl)c(-c3ccc(CC(=O)N4CCC4)cc3)cc12	73
O=C(O)c1n[nH]c2cc(Cl)c(-c3cccc(O)c3)cc12	80
CN1CCC(c2ccc(-c3cc4c(C(=O)O)c[nH]c4cc3Cl)cc2)C1 (stereo not drawn)	110
O=C1COC(c2ccc(-c3cc4c(C(=O)O)c[nH]c4cc3Cl)cc2)CN1 (stereo not drawn)	102
O=C(O)c1c[nH]c2cc(Cl)c(-c3ccc(C4(CO)CC4)cc3)cc12	91
O=C(O)c1n[nH]c2cc(Cl)c(-c3ccc4c(c3)CCO4)cc12	100
O=C(O)c1c[nH]c2cc(Cl)c(-c3ccc(OCCN4CCNCC4)cc3)cc12	89
O=C(O)c1n[nH]c2cc(Cl)c(-c3ccc(OCCO)cc3)cc12	97
COc1nc(N(C)CCO)ccc1-c1cc2c(C(=O)O)c[nH]c2cc1Cl	114
O=C(O)c1c[nH]c2cc(Cl)c(-c3ccc(O[C@H]4CCCC[C@@H]4O)cc3)cc12	79
Cc1cc2[nH]cc(C(=O)O)c2cc1-c1ccc(C2(O)CCC2)cc1	72

###

Below, each of the compounds is paired with its reported Emax value.
- Measured target: human AMPK (full-length γ1, β1 and α1 subunits) (Homo sapiens (Human), UniProt Q13131+Q9Y478)
- Assay comment: AMPK in vitro biochemical assay (33P-based, SAMS peptide, PP2A dephosphorylation)
- Applied conditions: counts as % of positive control wells (enzyme, allosteric activator or AMP, PP2A and substrate); read-out: Maximum

Compound	Emax [%]
O=C(O)c1n[nH]c2cc(F)c(-c3ccc(C4CCOCC4)cc3)cc12	100
COC1CCN(CCCOc2ccc(-c3cc4c(C(=O)O)c[nH]c4cc3Cl)cc2)CC1	105
O=C(O)c1c[nH]c2cc(F)c(-c3ccc(OCCC4CCCO4)cc3)c(F)c12 (stereo not shown)	140
COC(=O)N1CCC(c2ccc(-c3cc4c(C(=O)O)c[nH]c4cc3Cl)cc2)C1 (single isomer, unassigned) [Example 14A]	101

###

- Measured target: human AMPK (full-length γ1, β1 and α1 subunits) (Homo sapiens (Human), UniProt Q13131+Q9Y478)
- Assay comment: AMPK in vitro biochemical assay (33P-based, SAMS peptide, PP2A dephosphorylation)
- Applied conditions: counts as % of positive control wells (enzyme, allosteric activator or AMP, PP2A and substrate); read-out: Maximum
Result type: Emax (%)

Molecule	Result type	Numeric result
COC[C@H](C)Oc1ccc(-c2cc3c(C(=O)O)c[nH]c3cc2Cl)cc1 [Example 159]	Emax	98.6
NC(=O)C1(c2ccc(-c3cc4c(C(=O)O)n[nH]c4cc3Cl)cc2)CCC1 [Example 122]	Emax	75
O=C(O)c1c[nH]c2cc(Cl)c(-c3ccc(C4(CO)CCC4)c(F)c3)cc12 [Example 142]	Emax	92.9
O=C(O)c1n[nH]c2cc(Cl)c(-c3ccc(CO)cc3)cc12 [Example 111]	Emax	12
O=C(O)c1c[nH]c2cc(Cl)c(-c3ccc4c(c3)OCC4)cc12 [Example 57]	Emax	107
COc1ccc(-c2cc3c(C(=O)O)c[nH]c3cc2Cl)cc1 [Example 33]	Emax	83
O=C(O)c1c[nH]c2cc(Cl)c(-c3ccc(OC4COC4)cc3)cc12 [Example 18]	Emax	92
O=C(O)c1c[nH]c2cc(F)c(-c3ccc(C4(O)COC4)cc3)c(F)c12 [Example 20]	Emax	62
CC(C)(CO)c1ccc(-c2cc3c(C(=O)O)c[nH]c3cc2Cl)cc1 [Example 36]	Emax	70

###

- Measured target: human AMPK (full-length γ1, β1 and α1 subunits) (Homo sapiens (Human), UniProt Q13131+Q9Y478)
- Assay comment: AMPK in vitro biochemical assay (33P-based, SAMS peptide, PP2A dephosphorylation)
- Applied conditions: activation of phosphorylated AMPK; 33P-ATP, SAMS peptide, PP2A treatment; 4-parameter fit
pEC50: −log10 of the molar value.

Molecule	pEC50
O=C(O)c1c[nH]c2cc(F)c(-c3ccc(C4CCCO4)cc3)c(F)c12 (single isomer, unassigned) [Example 152]	7.78
O=C(O)c1c[nH]c2cc(Cl)c(-c3ccc(C4(CO)CCC4)c(F)c3)cc12	7.67
O=C(O)c1c[nH]c2cc(Cl)c(-c3ccccc3)cc12	6.34
O=C(O)c1c[nH]c2cc(Cl)c(-c3ccc(OC4COC4)cc3)cc12	6.74
O=C(O)c1c[nH]c2cc(Cl)c(-c3ccc(CO)cc3)cc12	7.19
O=C(O)c1c[nH]c2cc(Cl)c(-c3ccc(OCc4ncccn4)cc3)cc12	7.76
CC(=O)N1CCC(c2ccc(-c3cc4c(C(=O)O)c[nH]c4cc3Cl)cc2)C1 (stereo not drawn)	6.20
O=C(O)c1c[nH]c2cc(Cl)c(-c3ccc(OCCCO)c(F)c3)cc12	7.05
O=C(O)c1c[nH]c2cc(Cl)c(-c3ccc(C4(O)COC4)cc3)cc12	7.45
COc1ccc(-c2cc3c(C(=O)NS(=O)(=O)c4ccccc4)n[nH]c3cc2Cl)cc1	6.77
O=C(O)c1n[nH]c2cc(Cl)c(-c3ccc(OCCO)cc3)cc12	7.35
O=C(O)c1c[nH]c2cc(Cl)c(-c3ccc(OCCO)c(F)c3)cc12	6.74
O=C(O)c1c[nH]c2cc(F)c(-c3ccc(OCCCO)cc3)c(F)c12	5.97
CN(C)c1ncc(-c2cc3c(C(=O)O)c[nH]c3cc2Cl)cn1	6.10
O=C(O)c1c[nH]c2cc(Cl)c(-c3ccc(C4CCCN4)cc3)cc12 (stereo not drawn)	6.09
COC(=O)N1CCC(c2ccc(-c3cc4c(C(=O)O)c[nH]c4cc3Cl)cc2)C1 (single isomer, unassigned) [Example 14A]	7.00
COc1ccc(-c2cc3c(C(=O)O)c[nH]c3cc2Cl)cc1	7.07
COc1cccc(-c2cc3c(C(=O)O)c[nH]c3cc2Cl)c1	6.42
